Target: α-glucosidase
Assay: α-glucosidase inhibitory activity, spectrophotometric p-nitrophenyl-α-D-glucopyranoside method
Details: mean ± SEM of three parallel measurements; concentration range 50–100–200–400 μM; read-out: antidiabetic inhibition activity IC50 α-lucosidase
Give IC50 for every item shown.
Numbers only, in µM.

Examples from the recorded data:
O=C(/C=C/c1ccc(OC(F)(F)F)cc1)c1ccc(N2CCCC2)cc1 = 61.3
O=C(/C=C/c1ccc(F)cc1)c1ccc(N2CCCC2)cc1 = 58.9
O=C(/C=C/c1cccc(C(F)(F)F)c1)c1ccc(N2CCCC2)cc1 = 54.1

State recorded IC50 for all listed compounds.
1. O=C(/C=C/c1ccc(C(F)(F)F)cc1)c1ccc(N2CCCC2)cc1
2. O=C(/C=C/c1cc(C(F)(F)F)cc(C(F)(F)F)c1)c1ccc(N2CCCC2)cc1

Reply |
1. 46.5
2. 44.2
